tested on: Plasmodium falciparum; assay: Relative activity compared to artemisinin against Plasmodium falciparum D6 (Sierra Leone); Not active; type: functional, organism-based
Active and inactive are the calls of the source. No cut-off for these calls is given here.
endpointLabel: Relative activity

Worked examples, 6 compounds total:
* C[C@@H]1CC[C@H]2C(C)(C)C(=O)O[C@@H]3O[C@@]4(C)CC[C@@H]1[C@]32O4 | inactive
* CC1CCC2C(CCc3ccccc3)C(=O)OC3OC4(C)CCC1C32O4 (stereo not given) | inactive
* CC1CCC2C(CCCCc3ccccc3)C(=O)OC3OC4(C)CCC1C32O4 (stereo not given) | inactive
* CCCCC[C@H]1C(=O)O[C@@H]2O[C@@]3(C)CC[C@H]4[C@H](C)CC[C@@H]1[C@@]24O3 | inactive
* CC(C)C[C@H]1C(=O)O[C@@H]2O[C@@]3(C)CC[C@H]4[C@H](C)CC[C@@H]1[C@@]24O3 | inactive
* CC(C)CCC[C@H]1C(=O)O[C@@H]2O[C@@]3(C)CC[C@H]4[C@H](C)CC[C@@H]1[C@@]24O3 | inactive

Input line: Using the record for C[C@@H]1CC[C@H]2[C@H](C)C(=O)O[C@@H]3O[C@@]4(C)CC[C@@H]1[C@]32O4 , report its Relative activity.
Output line: inactive

Input line: Would you kindly share the measured Relative activity for C[C@@H]1CC[C@H]2CC(=O)O[C@@H]3O[C@@]4(C)CC[C@@H]1[C@@]23O4 ?
Output line: inactive

Input line: If you can, please state the reported Relative activity value of CCCC[C@H]1C(=O)O[C@@H]2O[C@@]3(C)CC[C@H]4[C@H](C)CC[C@@H]1[C@@]24O3 .
Output line: inactive

Input line: Look at this compound and give its reported Relative activity. C=CC[C@H]1C(=O)O[C@@H]2O[C@@]3(C)CC[C@H]4[C@H](C)CC[C@@H]1[C@@]24O3
Output line: inactive

Reference for the values: ChEMBL document CHEMBL1126576
